targetOrTestSystem: human EHMT2 913-1193 (Homo sapiens)
Construct: recombinant purified human EHMT2 913-1193, Viva; purchased Viva
Sequence (Q96KQ7 913-1193): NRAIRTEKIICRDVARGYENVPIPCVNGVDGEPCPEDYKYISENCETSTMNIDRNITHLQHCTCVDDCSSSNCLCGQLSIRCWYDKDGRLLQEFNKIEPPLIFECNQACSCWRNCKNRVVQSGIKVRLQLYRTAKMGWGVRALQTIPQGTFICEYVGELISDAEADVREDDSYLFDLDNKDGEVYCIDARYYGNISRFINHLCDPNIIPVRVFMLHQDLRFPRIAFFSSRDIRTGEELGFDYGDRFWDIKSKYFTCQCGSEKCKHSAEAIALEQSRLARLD
testName: EHMT2 enzyme assay on histone peptide substrate (EHMT2 PEP)
Type: biochemical
settings: Table III; read-out: EHMT2 PEP (IC50 μM)
readoutName: IC50

See these solved cases before continuing.
| compound | IC50 |
| --- | --- |
| CNc1ccnc(Nc2ccc(OC)c(OCC3CCCN3C)c2)n1 (stereo not drawn) | 0.1 to 1 µM |
| CCn1nc(Nc2nccc3[nH]ccc23)cc1COCCN1CCCC1 | 1 to 10 µM |
| CNc1cc(Nc2cccc(COCCN3CCCC3)n2)ccn1 | > 10 µM |
| COc1ccc(Nc2nc(C)cc(O)n2)cc1OCCCN1CCCC1 | > 10 µM |
| CCN1CCC(COc2cc(Nc3nccc(NC)n3)ccc2OC)C1 (stereo not drawn) | 0.1 to 1 µM |
| CNc1cnnc(Nc2ccc(OC)c(OCCCN3CCCC3)c2)c1 | 0.1 to 1 µM |

Req: Reported IC50 for CNc1ccnc(Nc2ccc(OC)c(COCCN3CCCC3)c2)n1 : what is it?
Resp: 0.1 to 1 µM

Req: Consider the compound shown here: CNc1ccnc(Nc2ccc(OC)c(OCCCN3CC4CC4C3)c2)n1 (stereo not drawn) What is its recorded IC50?
Resp: < 0.1 µM

Req: Recorded IC50 of COc1cnc(Nc2cc(C)nc3[nH]ccc23)cc1OCCCN1CCCC1 , please.
Resp: 0.1 to 1 µM

Req: Which IC50 is listed for CNc1cncc(Nc2ccc(OC)c(OCCCN3CCCC3)c2)n1 ?
Resp: 1 to 10 µM

Req: Using the record for CCNC(=O)c1cc(Nc2nccc(NC)n2)ccc1OC , report its IC50.
Resp: > 10 µM

Req: Value lookup for IC50; key = CNc1ccnc(Nc2ccc3cnn(CCN(C)C)c3c2)n1
Resp: > 10 µM

Req: Given the entry CNc1cc(Nc2cc(OCCCN3CCCC3)c(OC)cn2)ccn1 , report its measured IC50.
Resp: < 0.1 µM

Req: Returns the measured IC50 for the input compound. Input: CNc1cc(C)nc(Nc2ccc(OC)c(OCC3CCN(C)CC3)c2)n1
Resp: 1 to 10 µM
